Target: TLR7/NFKb HEK cells (Homo sapiens)
Sequence (Q9NYK1 27-1049): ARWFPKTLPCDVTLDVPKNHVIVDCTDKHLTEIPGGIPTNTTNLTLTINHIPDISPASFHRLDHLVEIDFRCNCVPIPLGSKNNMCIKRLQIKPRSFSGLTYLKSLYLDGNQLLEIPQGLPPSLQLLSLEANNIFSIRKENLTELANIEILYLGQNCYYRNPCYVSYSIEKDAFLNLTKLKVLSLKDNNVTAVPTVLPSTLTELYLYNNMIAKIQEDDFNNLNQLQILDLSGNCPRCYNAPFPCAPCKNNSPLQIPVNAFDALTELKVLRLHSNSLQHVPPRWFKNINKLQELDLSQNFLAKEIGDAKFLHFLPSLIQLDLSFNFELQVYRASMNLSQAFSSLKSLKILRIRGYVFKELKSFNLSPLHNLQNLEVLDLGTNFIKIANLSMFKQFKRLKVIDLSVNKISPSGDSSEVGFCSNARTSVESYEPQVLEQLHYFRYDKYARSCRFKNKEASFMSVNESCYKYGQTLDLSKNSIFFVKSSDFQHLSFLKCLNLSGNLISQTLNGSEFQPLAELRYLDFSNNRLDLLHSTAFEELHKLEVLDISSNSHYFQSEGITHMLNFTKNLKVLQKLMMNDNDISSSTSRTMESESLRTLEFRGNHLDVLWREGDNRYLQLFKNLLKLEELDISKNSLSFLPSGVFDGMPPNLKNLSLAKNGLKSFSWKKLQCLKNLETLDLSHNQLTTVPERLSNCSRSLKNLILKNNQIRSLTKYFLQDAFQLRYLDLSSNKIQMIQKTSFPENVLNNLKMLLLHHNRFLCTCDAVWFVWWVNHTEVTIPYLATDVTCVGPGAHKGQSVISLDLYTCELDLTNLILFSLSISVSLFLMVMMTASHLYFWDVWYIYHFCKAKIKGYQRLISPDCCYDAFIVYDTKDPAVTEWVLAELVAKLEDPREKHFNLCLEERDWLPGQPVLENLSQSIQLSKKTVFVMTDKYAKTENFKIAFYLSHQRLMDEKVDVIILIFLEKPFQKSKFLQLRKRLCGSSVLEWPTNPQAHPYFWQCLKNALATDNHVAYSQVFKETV
Assay: HEK Cell Assay (TLR7/NFKb reporter, Steady-Glo luciferase readout)
Settings: 30 min compound preincubation, then R*48 agonist for 5 hours, read-out: Potency
Where a name gives a salt, the structure may show the parent alone.
A collection of compounds and their measured IC50

Some solved cases for reference:
CC1CC(CN2CCN(C)CC2)CN(c2ccc(C(F)(F)F)c3ncccc23)C1 (single isomer, unassigned) [Compound 533]
< 1000 nM
O=C(CN1CCOCC1)NC1CN(c2ccc(C(F)(F)F)c3ncccc23)CC(F)(F)C1 (stereo not shown) [Compound 512]
1000 to 10000 nM
CC(Cl)C(=O)NC1CN(c2ccc(C#N)c3nccnc23)CC(F)(F)C1 (stereo not shown) [Compound 506]
1000 to 10000 nM
COCCN[C@@H]1C[C@H](C)CN(c2ccc(C(N)=O)c3ncccc23)C1 [Compound 183]
> 10000 nM
FC(F)(F)c1ccc2nccc(N3CCC(CNCCN4CCCCC4)CC3)c2c1 [Compound 387]
1000 to 10000 nM
C[C@H]1C[C@@H](NC(=O)Cn2cccn2)CN(c2ccc(C#N)c3nccnc23)C1 [Compound 169]
< 1000 nM
CN(C)CC(=O)N[C@H]1C[C@@H](C(F)(F)F)CN(c2ccc(C#N)c3ncccc23)C1 (racemic) [Compound 426]
< 1000 nM
CC1(C)CCN(CC(=O)N[C@@H]2C[C@H](C(F)(F)F)CN(c3ccc(C#N)c4ncccc34)C2)C1 [Compound 577]
< 1000 nM

In plain terms, C[C@H]1C[C@@H](N)CN(c2ccc(C#N)c3nccnc23)C1 [Compound 12] has a documented IC50 of < 1000 nM

In plain terms, CN[C@@H]1C[C@H](C)CN(c2ccc(C(F)(F)F)c3ncccc23)C1 [Compound 451, hydrochloride] has a documented IC50 of < 1000 nM

In plain terms, C[C@H]1C[C@@H](NC(=O)C(N)C(F)(F)F)CN(c2ccc(C(N)=O)c3ncccc23)C1 (single isomer, unassigned) [Compound 184] has a documented IC50 of > 10000 nM

In plain terms, O=C(CN1CCCCC1)NCC1CCN(c2ccc(C(F)(F)F)c3ncccc23)CC1 [Compound 448] has a documented IC50 of 1000 to 10000 nM

In plain terms, C[C@H]1C[C@@H](NC(=O)CC2C3CC2CN(C)C3)CN(c2ccc(C#N)c3nccnc23)C1 (single isomer, unassigned) [Compound 358] has a documented IC50 of < 1000 nM

In plain terms, C[C@H]1C[C@@H](NC(=O)NCCN(C)C)CN(c2ccc(C(F)(F)F)c3ncccc23)C1 [Compound 477] has a documented IC50 of < 1000 nM

In plain terms, CN(C)C(=O)CCC(=O)N1CCN(c2ccc(C#N)c3nccnc23)CC1 [Compound 454] has a documented IC50 of 1000 to 10000 nM

In plain terms, CC(C)(C)CC(=O)N[C@H]1C[C@@H](C(F)(F)F)CN(c2ccnc3nccnc23)C1 (relative stereo) [Compound 86] has a documented IC50 of > 10000 nM

In plain terms, C[C@H]1C[C@@H](NC(=O)CN(C)C)CN(c2ccc(C(F)(F)F)c3ncccc23)C1 [Compound 199] has a documented IC50 of < 1000 nM

* * *

Target: TLR7/NFKb HEK cells (Homo sapiens)
Sequence (Q9NYK1 27-1049): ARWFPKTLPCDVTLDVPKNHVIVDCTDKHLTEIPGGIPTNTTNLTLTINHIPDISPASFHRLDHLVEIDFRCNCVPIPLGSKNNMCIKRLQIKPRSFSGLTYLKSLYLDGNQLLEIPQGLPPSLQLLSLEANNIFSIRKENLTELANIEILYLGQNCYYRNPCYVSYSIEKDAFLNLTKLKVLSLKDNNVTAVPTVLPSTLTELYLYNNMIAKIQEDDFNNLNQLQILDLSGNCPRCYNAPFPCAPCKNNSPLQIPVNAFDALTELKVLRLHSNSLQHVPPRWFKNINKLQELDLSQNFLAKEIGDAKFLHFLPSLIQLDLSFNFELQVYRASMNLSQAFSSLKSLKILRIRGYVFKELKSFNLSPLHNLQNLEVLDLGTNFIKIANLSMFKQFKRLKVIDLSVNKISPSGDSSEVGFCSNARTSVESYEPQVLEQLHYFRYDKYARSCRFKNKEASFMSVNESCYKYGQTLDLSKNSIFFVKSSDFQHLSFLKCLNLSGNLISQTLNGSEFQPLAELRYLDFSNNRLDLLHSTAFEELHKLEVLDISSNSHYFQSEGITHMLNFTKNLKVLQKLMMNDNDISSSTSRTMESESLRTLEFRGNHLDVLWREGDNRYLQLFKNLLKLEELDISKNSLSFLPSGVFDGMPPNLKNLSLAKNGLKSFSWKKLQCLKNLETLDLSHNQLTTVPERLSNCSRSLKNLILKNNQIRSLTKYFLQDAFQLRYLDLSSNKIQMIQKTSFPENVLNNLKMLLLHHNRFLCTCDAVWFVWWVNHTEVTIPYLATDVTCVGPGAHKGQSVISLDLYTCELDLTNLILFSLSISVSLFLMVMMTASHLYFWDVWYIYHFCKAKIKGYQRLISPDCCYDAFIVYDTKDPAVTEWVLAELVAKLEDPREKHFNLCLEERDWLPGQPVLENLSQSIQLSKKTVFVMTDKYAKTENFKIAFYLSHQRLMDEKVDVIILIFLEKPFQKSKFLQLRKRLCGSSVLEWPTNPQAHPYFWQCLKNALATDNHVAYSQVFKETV
Experiment: HEK Cell Assay (TLR7/NFKb reporter, Steady-Glo luciferase readout)
Details: 30 min compound preincubation, then R*48 agonist for 5 hours, read-out: Potency
quantity_kind: IC50

CN1CCC(NC2CC(C(F)(F)F)CN(c3ccc(C#N)c4nccnc34)C2)C1=O (single isomer, unassigned) [Compound 225]
1 to 10 µM

In plain terms, COCCN[C@@H]1C[C@H](C)CN(c2ccc(C(F)F)c3ncccc23)C1 has a documented IC50 of < 1 µM

In plain terms, C[C@H]1C[C@@H](NC(=O)CC2CC2(F)F)CN(c2ccc(C#N)c3nccnc23)C1 (stereo partly shown) has a documented IC50 of < 1 µM

In plain terms, C[C@H]1C[C@@H](NC(=O)CC2CCN(C)C2)CN(c2ccc(C(F)F)c3nccnc23)C1 (stereo partly shown) has a documented IC50 of < 1 µM

In plain terms, C[C@H]1C[C@@H](N)CN(c2ccc(C(F)F)c3ncccc23)C1 has a documented IC50 of < 1 µM

* * *

Target: TLR7/NFKb HEK cells (Homo sapiens)
Assay: HEK Cell Assay (TLR7/NFKb reporter, Steady-Glo luciferase readout)
Conditions: 30 min compound preincubation, then R*48 agonist for 5 hours, read-out: Potency
A collection of compounds and their measured IC50

Some solved cases for reference:
C[C@H]1C[C@@H](NC(=O)CN)CN(c2ccnc3nccnc23)C1 [Compound 34]
> 10 µM
Cc1ncc(N2C[C@@H](C)C[C@@H](NC(=O)CCC(=O)O)C2)c2cccnc12 [Compound 567]
> 10 µM
N[C@H]1C[C@@H](C2CC2)CN(c2ccc(F)c3nccnc23)C1 (relative stereo) [Compound 366]
1 to 10 µM

Measured on TLR7/NFKb HEK cells (Homo sapiens), C[C@H]1C[C@@H](NC(=O)CN2CC(O)C2)CN(c2ccc(C(F)(F)F)c3nccnc23)C1 [Compound 296] has a documented IC50 of < 1 µM

Measured on TLR7/NFKb HEK cells (Homo sapiens), C[C@H]1C[C@@H](NC(=O)CN2CC(N)C2)CN(c2ccc(C#N)c3nccnc23)C1 [Compound 356] has a documented IC50 of < 1 µM

Measured on TLR7/NFKb HEK cells (Homo sapiens), N#Cc1ccc(N2C[C@H](NCCC(F)(F)F)C[C@H](C(F)(F)F)C2)c2nccnc12 (relative stereo) [Compound 95] has a documented IC50 of 1 to 10 µM

Measured on TLR7/NFKb HEK cells (Homo sapiens), CC(C)[C@H](O)C(=O)NC1CC(C(F)(F)F)CN(c2ccc(C#N)c3ncccc23)C1 (single isomer, unassigned) [Compound 429] has a documented IC50 of > 10 µM
